Value source: patent US6716853B2

Attribute: pIC50
target: human collagenase 3 (MMP-13) catalytic domain (Homo sapiens); construct: catalytic domain of human collagenase 3 (MMP-13); purchased INVITEK, Berlin 30 100 803; test: Enzymatic activity of the catalytic domain of human collagenase 3 (MMP-13), fluorogenic substrate; type: biochemical; settings: Table 2; pH 7.5; read-out: MMP 13 IC50
pIC50: −log10 of the molar value.

- SMI: "Cn1cnc2c1C[C@H](C(=O)O)N(S(=O)(=O)c1ccc(-c3ccc(NC(=O)OCC4CC4)cc3)cc1)C2"
  pIC50: 7.70
- SMI: "CCCCCCOC(=O)Nc1ccc(-c2ccc(S(=O)(=O)N3Cc4ccccc4C[C@@H]3C(=O)O)cc2)cc1"
  pIC50: 7.15
- SMI: "CC(C)OC(=O)Nc1ccc(-c2ccc(S(=O)(=O)N3Cc4ccccc4C[C@@H]3C(=O)O)cc2)cc1"
  pIC50: 7.52
- SMI: "CC(C)OC(=O)Nc1ccc(-c2ccc(S(=O)(=O)N3Cc4ncn(C)c4C[C@@H]3C(=O)O)cc2)cc1"
  pIC50: 7.10
- SMI: "Cn1cnc2c1C[C@H](C(=O)O)N(S(=O)(=O)c1ccc(-c3ccc(NC(=O)OCC(C)(C)C)cc3)cc1)C2"
  pIC50: 7.15
- SMI: "CC(C)COC(=O)Nc1ccc(-c2ccc(S(=O)(=O)N3Cc4ccccc4C[C@@H]3C(=O)O)cc2)cc1"
  pIC50: 7.70
